Cited source for all entries: patent US20250243263A1

target: enriched paired helical filament tau protein (ePHF; sarkosyl insoluble tau) (human, UniProt P10636 2-758); test: direct ELISA, ePHF coated
Sequence (P10636 other isoform, or with tags, fused parts or gaps limits assumed): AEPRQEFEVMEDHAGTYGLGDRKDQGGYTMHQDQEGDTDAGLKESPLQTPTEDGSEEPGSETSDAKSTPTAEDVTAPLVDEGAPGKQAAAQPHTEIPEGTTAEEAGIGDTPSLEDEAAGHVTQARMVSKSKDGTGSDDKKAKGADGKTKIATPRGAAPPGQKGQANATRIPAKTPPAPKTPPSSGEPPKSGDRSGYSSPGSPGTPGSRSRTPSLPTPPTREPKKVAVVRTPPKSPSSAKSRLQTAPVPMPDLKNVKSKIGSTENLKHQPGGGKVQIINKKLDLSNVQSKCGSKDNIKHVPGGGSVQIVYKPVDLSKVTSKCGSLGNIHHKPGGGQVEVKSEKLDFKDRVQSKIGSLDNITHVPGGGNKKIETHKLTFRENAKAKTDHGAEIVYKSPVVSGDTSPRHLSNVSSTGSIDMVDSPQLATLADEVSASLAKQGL

>  <BINDER>
VY005 (antibody, V domains shown) VH: EVQLVESGGGLVQPGGSLRLSCAASGFTFSSYSMNWVRQAPGKGLEWISYISSSNSTIKYADSVKGRFTISRDNAKNSLYLQMNSLRDEDTAVYYCARRSLGDYWGQGTLVIVSS VL: DIQLTQSPSFLSASVGDRVTITCRASQGISCSLAWYQQKPGKAPKLLIYAASTLQSGVPSRFSGSGSGTEFTLTISSLQPEDFATYYCQQFNSYPFTFGPGTKVDIK

>  <EC50 / nM>
0.07

$$$$
>  <BINDER>
VY011 (antibody, V domains shown, also called VY0I1; VY0111 (misprints in the text)) VH: QVQLQESGPGLVKPSETLSLTCTVSGGSISNYYWTWIRQPAGKGLEWIGRVYTSGSANYNPSLKSRVTMSVDTSKNQFSLTLSSVTAADTAVYYCARDRGLYYWGQGTLVTVSS VL: DIVMTQTPLSSLVTLGQPASISCRSSQSLVHSDGNTYLSWLQQRPGQPPRLLIYKISKRFFGVPDRFSGSGAGTDFTLKINRVEAEDVGIYYCMQATQFPLTFGGGTKVEIK

>  <EC50 / nM>
0.03

$$$$
>  <BINDER>
VY012 (antibody, V domains shown) VH: EVQLLESGGGLVQPGGSLRLSCAASGFTYSSYAMSWVRRAPGKGLEWISIISGSSSITYYADSMKGRFTISRDNSKNTLFLQMNSLRAEDTAVYYCAKGGRYGYFQHWGQGTLVTVSS VL: SYVLTQPPSVSVAPGQTARITCGGNNIGSKSVHWYQQKPGQAPVLVVYDDSDRPSGIPERFSGSNSGNTATLTISRVEAGDEADYYCQVWDSSSDPVVFGGGTMLTVL

>  <EC50 / nM>
0.04

$$$$
